Hello, the source for this data is ChEMBL document CHEMBL3352673, in case you need it.

- SYSTEM TESTED: hERG (KCNH2) (Homo sapiens)
- Sequence (Q12809 whole entry): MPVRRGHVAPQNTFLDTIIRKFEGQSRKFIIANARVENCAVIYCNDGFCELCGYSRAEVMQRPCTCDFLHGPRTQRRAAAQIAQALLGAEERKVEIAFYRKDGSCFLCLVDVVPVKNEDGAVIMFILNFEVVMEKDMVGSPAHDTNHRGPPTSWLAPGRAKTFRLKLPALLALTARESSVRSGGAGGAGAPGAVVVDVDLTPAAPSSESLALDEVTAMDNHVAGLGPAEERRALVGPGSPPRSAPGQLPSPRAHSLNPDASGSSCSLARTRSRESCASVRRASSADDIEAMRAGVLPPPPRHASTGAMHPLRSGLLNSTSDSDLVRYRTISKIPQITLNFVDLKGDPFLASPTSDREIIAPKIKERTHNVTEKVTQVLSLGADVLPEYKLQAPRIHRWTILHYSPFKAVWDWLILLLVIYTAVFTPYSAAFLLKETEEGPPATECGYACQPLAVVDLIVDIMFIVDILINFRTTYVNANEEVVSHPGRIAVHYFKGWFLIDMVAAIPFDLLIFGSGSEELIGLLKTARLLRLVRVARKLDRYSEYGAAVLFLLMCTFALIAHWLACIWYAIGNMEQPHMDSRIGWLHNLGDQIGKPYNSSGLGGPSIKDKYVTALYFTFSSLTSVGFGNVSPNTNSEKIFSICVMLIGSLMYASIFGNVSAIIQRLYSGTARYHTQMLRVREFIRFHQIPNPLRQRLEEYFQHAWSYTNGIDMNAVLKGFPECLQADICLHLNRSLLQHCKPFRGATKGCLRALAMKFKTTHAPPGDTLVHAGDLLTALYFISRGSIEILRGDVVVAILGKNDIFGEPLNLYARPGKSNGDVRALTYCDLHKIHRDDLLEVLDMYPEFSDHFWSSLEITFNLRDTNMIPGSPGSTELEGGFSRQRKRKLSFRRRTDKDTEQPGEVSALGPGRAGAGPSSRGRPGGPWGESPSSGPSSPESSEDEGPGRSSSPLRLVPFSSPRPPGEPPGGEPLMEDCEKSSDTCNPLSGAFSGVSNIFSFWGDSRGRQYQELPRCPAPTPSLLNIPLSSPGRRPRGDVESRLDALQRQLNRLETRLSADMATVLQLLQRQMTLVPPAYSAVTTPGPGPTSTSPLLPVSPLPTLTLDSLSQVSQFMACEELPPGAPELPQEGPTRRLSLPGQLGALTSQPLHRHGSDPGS
- EXPERIMENTAL DETAILS: Inhibition of human ERG at 10 uM
RECORDED METRIC: inhibition at 10 µM (%)
Answer with a number only, understood to be in %.

Data request: Tell me its inhibition at 10 µM given `O=C(c1ccc(-c2cccc(Cl)c2)cc1)N1C2CCC1CN(c1ncccn1)C2` as the entry.
Data returned: 59

====

- EXPERIMENTAL DETAILS: Cmax in albino C57BL/6 mouse at 100 mg/kg, po
- Assay type: ADME, organism-based
- Set-up: dose 100 mg/kg, route oral
- TEST CONTEXT: in vivo
RECORDED METRIC: Cmax (ng/mL)
Answer with a number only, understood to be in ng/mL.

Data request: Tell me its Cmax given `O=C(c1ccc(-c2cccc(Cl)c2)cc1)N1CC2CCC(C1)N2c1ncccn1` as the entry.
Data returned: 4500
